Molecular target: trypsin (Bos taurus, UniProt P00760)
Sequence (P00760 24-246): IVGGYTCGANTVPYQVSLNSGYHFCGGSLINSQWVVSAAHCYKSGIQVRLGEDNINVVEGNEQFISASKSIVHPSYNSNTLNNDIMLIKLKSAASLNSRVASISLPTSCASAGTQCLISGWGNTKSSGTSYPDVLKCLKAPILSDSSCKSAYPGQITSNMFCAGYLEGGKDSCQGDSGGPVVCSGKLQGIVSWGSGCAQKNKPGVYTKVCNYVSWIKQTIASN
experimental-endpoint: Ki (mM)

{"columns": ["compound", "meas-value"],
 "data": [
  ["N=C(N)NCCC[C@H](N)C(=O)O [arginine, L-arginine]", 41]
]}
